Cited source: the supplement of paper PMC10065799

# Tested on: AncSZ
# assay_remarks: phosphorylation enrichment, bacterial display (enrichment ratio); higher = better substrate or ligand; peptides without Tyr show the background
quantity: phosphorylation enrichment
Kindly provide the number alone.

// below: answered sequences
sequence_code	phosphorylation enrichment
GGYTCCCDGKK [PROS1_Y266_Y266C]	0.943
VREIRCQGGNR [VWF_Y1570_Y1570C]	0.648
LEGAKYVSHGA [ASS1_Y113_R108L]	0.835
GGQVFHNSEFG [FLT4_Y1333_Y1333H_YF]	0.593
TYGVAYRAKDK [CDK11B_Y453_V452A]	0.712
DFDHSYFFIAT [ESD_Y262_G257D_YF]	2.16
SEASYYKSLNL [NGEF_Y289]	0.827
TLNFCYQQVKS [PTK2_Y148_F147C]	1.25
EWQQIYTFDSG [JUP_Y20_T19I_YF]	1.78
QMVGMYAFSFM [AVPR2_Y124_S126F_YF]	1.5

Form field: reported phosphorylation enrichment of ILGRFYERGSI [PAX5_Y73_T75R_YF]
0.651

Form field: reported phosphorylation enrichment of LNSFIYSLRNR [OR1A1_Y288_P285S]
1.3

Form field: reported phosphorylation enrichment of KGEDFYCVTYH [FHL1_Y149_C153Y]
1.84

Form field: reported phosphorylation enrichment of KTVQDYLEKFY [MMP8_Y36]
1.36

Form field: reported phosphorylation enrichment of DKATEYSQFMR [MAX_Y70_I71S_YF]
0.84

Form field: reported phosphorylation enrichment of CTTIQYNYMCN [TP53_Y234_H233Q]
0.927

Form field: reported phosphorylation enrichment of FLAVGYHMPHI [IDS_Y225_K227M]
0.761

====

Measured phosphorylation enrichment accompanies every entry in the list below.
# Tested on: Fer (mouse)
# assay_remarks: phosphorylation enrichment, bacterial display (enrichment ratio); higher = better substrate or ligand; peptides without Tyr show the background
Kindly provide the number alone.

// below: answered sequences
sequence_code	phosphorylation enrichment
PSDLLYIPDIQ [ITGA2B_Y845_L847P]	0.494
AGRTGYDNREI [BCL2_Y9]	0.5

Note: attention shifts to another entry.
// fetch Fer (mouse) phosphorylation enrichment for ELCSEYHKSRK [SPINK5_Y440_R441H]
0.507

====

# system_name: c-Src SH2
# assay_remarks: SH2 binding enrichment of the phosphorylated peptide, bacterial display (enrichment ratio); higher = better substrate or ligand; peptides without Tyr show the background
Measured SH2 binding enrichment accompanies every entry in the list below.
Kindly provide the number alone.

// below: answered sequences
sequence_code	value_observed
LPHVIYCRLWR [SMAD2_Y128]	0.679
VVTGPYEKPSL [KIR3DS1_Y221_L220P]	0.704

Note: attention shifts to another entry.
// fetch c-Src SH2 SH2 binding enrichment for WRGMPYGGRGD [TGM1_Y312_R307W]
0.709

====

# system_name: c-Src SH2;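 also: peptide library displayed on the E. coli surface as eCPX fusions, selected cells deep-sequenced, score is each peptide's frequency after selection divided by its frequency in the input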
# assay_remarks: SH2 binding enrichment of the phosphorylated peptide, bacterial display (enrichment ratio); higher = better substrate or ligand; peptides without Tyr show the background
I would appreciate it if you labelled entries 1.0 when SH2 binding enrichment is 0.7 or higher, otherwise 0.0.

Worked examples, 5 sequences total:
sequence_code	group_label
SSVKLYRVFCD [FGB_Y266_P265L_YF]	0.0
GHLFANDWISI [BEST1_Y227_Y227N_YF]	0.0
SLAARYFNWVC [FLT4_Y1230_S1235C_YF]	1.0
FSDPSYVKQME [CDC5L_Y464_YF]	0.0
LMLVLYGRIFR [HTR1A_Y215]	1.0

Does the sequence TAPFNYSFIFK [RAB14_Y8_YF] have recorded SH2 binding enrichment that is 0.7 or more?
1.0

Does the sequence WNNLDYMDSRR [GAA_Y407_D404N] have recorded SH2 binding enrichment that is 0.7 or more?
0.0

Does the sequence EKQARYEIVEE [CDH5_Y223_V227E] have recorded SH2 binding enrichment that is 0.7 or more?
1.0

Does the sequence RAILNYIASKF [GSTA3_Y74_YF] have recorded SH2 binding enrichment that is 0.7 or more?
0.0
